# measurementTarget: Chymotrypsinogen A (Bos taurus) (UniProt P00766)
# assayNotes: Tested for inhibition of Chymotrypsinogen from bovine
pIC50: −log10 of the molar value.
outcomeMeasure: pIC50

Enquiry: pIC50 lookup needed for CC(C)CC(=O)N[C@H](C(=O)N[C@H](C(=O)N[C@@H](CC(C)C)[C@@H](O)CC(=O)N[C@@H](C)C(=O)N[C@@H](CC(C)C)[C@@H](O)CC(=O)O)C(C)C)C(C)C [PEPSTATIN] , thanks.
Return: < 4.00
